test: Degradation tracking of 15N NR-Cl to 15N nicotinamide by 15N-1H HMBC and 1H NMR, with or without whey protein; type: physicochemical; settings: PBS buffer without whey protein (control); buffered pH 7, 25° C., control (without Whey protein)
property-name: half-life (h)
Numbers only here, please. The scale is h.

query: Please indicate half-life recorded for NC(=O)c1ccc[15n+]([C@@H]2O[C@H](CO)[C@@H](O)[C@H]2O)c1 [^15N NR-Cl]
result: 81.6

----------
Assay: Degradation tracking of 15N NR-Cl to 15N nicotinamide by 15N-1H HMBC and 1H NMR, with or without whey protein
Assay type: physicochemical
Details: glycine/sodium hydroxide buffer with whey protein; buffered pH 9, 25° C., in the presence of Whey protein
Method: A series of 1D ^1H and 1D ^15N-^1H HMBC experiments were collected on a 600 MHz Bruker instrument with 5-mm cryoprobe and using 5-mm NMR tubes. […] The integrations for the peaks corresponding to ^15N NR-Cl and ^15N nicotinamide were measured for the degradation that had occurred to ^15N—NR-Cl from Day 1 to Day 7. […]
property-name: half-life (h)
Give the value, in units of h, as a plain number.

query: Specify measured half-life for NC(=O)c1ccc[15n+]([C@@H]2O[C@H](CO)[C@@H](O)[C@H]2O)c1 [^15N NR-Cl] .
result: 240
